Format: in vivo, CD-1 mice
assay.conditions: male, CD-1, mouse, brain, iv, 25 mg/kg

{"structure.as.smiles": "O=C1OCC/C=C/CC/C=C/C(=N/OCC(=O)N2CCCCC2)Cc2c(Cl)c(O)cc(O)c21", "Cmax": "210 ng/g"}

* * *

Type: in vivo, CD-1 mice
assay.conditions: male, CD-1, mouse, plasma, iv, 70 mg/kg
measured.property: half-life (h)

{"structure.as.smiles": "O=C1OCC/C=C/CC/C=C/C(=N/OCC(=O)N2CCCCC2)Cc2c(Cl)c(O)cc(O)c21", "measured.property": "half-life", "observed.result": 2.74}

* * *

Type: in vivo, CD-1 mice
assay.conditions: male, CD-1, mouse, brain, iv, 70 mg/kg
measured.property: half-life (h)

{"structure.as.smiles": "O=C1OCC/C=C/CC/C=C/C(=N/OCC(=O)N2CCCCC2)Cc2c(Cl)c(O)cc(O)c21", "measured.property": "half-life", "observed.result": 4.07}
